Tested on: U251 CNS
assay-text: NCI-60 one-dose screen, 48 h
run-parameters: 10 µM unless noted
The panel holds about 83,000 compounds, 20% with a hit somewhere; the sample as a whole holds those more often. Activity calls are given as the source filed them. Rule for the calls: active = growth percent below 10; inactive = the rest.
Outcomes: yes (1) = active, no (0) = inactive

compound | class-name
O=C(NCCNc1cc(-c2cn(-c3ccccc3)nc2-c2cccc(O)c2)ccn1)Nc1ccccc1 | no (0)
COc1ccc(-c2c(N)n[nH]c2-c2ccc(Cl)cc2O)cc1OC | no (0)
CCOc1ccccc1-c1cc(-c2cccs2)c(C#N)c(=O)[nH]1 | no (0)
COCCN(C(=O)c1ccc(F)cc1F)c1c(N)n(Cc2ccccc2)c(=O)[nH]c1=O | no (0)
Cc1ccc(-n2c(-c3ccccc3)c(-c3ccccc3)c3c(SCC(=O)n4[nH]c(N)cc4=O)ncnc32)cc1 | no (0)
O=c1c2cc(F)ccc2sc2c(NCCCN3CCCC3)nc3ccccc3c12 | no (0)
CCCCc1ccc(Nc2ccc(Nc3ccc(CCCC)cc3S(=O)(=O)O)c3c2C(=O)c2ccccc2C3=O)c(S(=O)(=O)O)c1 | no (0)
O=[N+]([O-])c1ccc(N2c3ccncc3Sc3ccncc32)cc1 | no (0)
Cc1cc(NCc2cc(Nc3ccnc4cc(Cl)ccc34)ccc2F)nc(N2CCSCC2)n1 | yes (1)
COc1ccc2cc(-c3cc(OC)c(OC)c(OC)c3)c(=O)oc2c1 | no (0)
Cc1ccc(/C=C2\C(=O)N(C)c3ccc(S(=O)(=O)Nc4ccc(C(C)(C)C)cc4)cc32)s1 | no (0)
Cc1ccc(N(C(=O)CCc2c[nH]c3ccccc23)[C@H](C(=O)Nc2ccc(Cl)cc2)c2cccc([N+](=O)[O-])c2)cc1 | no (0)
COc1cc(C2CC(=O)Nc3c2c(C)nn3-c2nc3ccccc3[nH]2)c(OC)c2c1OCO2 (centres undefined) | no (0)
COc1ccc(C2C(c3nn[nH]n3)=C(N)Oc3c2ccc2ccccc32)cc1 (centres undefined) | no (0)
CCCCN(CCCC)CC(C)(C)C(O)c1ccc(OC)c2ccccc12 (centres undefined) | no (0)
CC(=O)N1C(=S)NC(=O)C1Cn1c(-c2ccccc2)nc2ccccc21 (centres undefined) | no (0)
Cc1ccc(C(=O)C2=C(O)C(=O)N(Cc3cccnc3)C2c2ccccc2F)o1 (centres undefined) | no (0)
COc1ccc2[nH]c(O)c(/C=c3/cc4c(c(-c5ccc(F)c(OC)c5)n3)=Nc3ccccc3-4)c2c1 | yes (1)
COc1cc2c(cc1-c1c(C)noc1C)ncc1nc(C3CCC(F)(F)CC3)n(C3CCC(OC(F)F)CC3)c12 (centres undefined) | no (0)
